# assay.target: P2X purinoceptor 1 (Homo sapiens, UniProt P51575)
# Sequence (P51575 whole entry, looked up): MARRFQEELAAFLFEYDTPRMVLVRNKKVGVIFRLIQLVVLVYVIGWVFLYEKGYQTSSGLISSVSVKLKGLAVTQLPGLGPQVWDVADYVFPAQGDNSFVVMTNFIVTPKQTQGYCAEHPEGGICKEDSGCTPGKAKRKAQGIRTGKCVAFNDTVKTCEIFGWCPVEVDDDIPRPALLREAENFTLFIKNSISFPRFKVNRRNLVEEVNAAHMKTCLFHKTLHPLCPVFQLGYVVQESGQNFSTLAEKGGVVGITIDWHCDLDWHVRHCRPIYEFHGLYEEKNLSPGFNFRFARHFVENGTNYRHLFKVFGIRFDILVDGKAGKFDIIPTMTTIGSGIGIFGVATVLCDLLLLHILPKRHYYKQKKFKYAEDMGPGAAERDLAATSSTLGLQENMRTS
# assay.procedure: Antagonist activity at non-desensitizing human P2X1 receptor ( P2X2/P2X1 chimera) expressed in human 1321N1 cells assessed as inhibition of ATP-induced calcium influx pre-incubated for 30 mins before ATP stimulation by FLIPR assay relative to control
Please assign F whenever IC50 is at or above 2 µM, and T whenever it is below.

Worked examples follow.
• O=C(Nc1cc(C(F)(F)F)cc(C(F)(F)F)c1)c1ccncc1O = F
• O=C(Nc1cc(C(F)(F)F)cc(C(F)(F)F)c1)c1cnccc1O = F
• O=C(Nc1cccc([N+](=O)[O-])c1)c1cc(Cl)ccc1O = T
• Nc1ccccc1C(=O)Nc1cc(C(F)(F)F)cc(C(F)(F)F)c1 = F
• O=C(Nc1ccc(Cl)cc1)c1cc(Cl)ccc1O = T

[Q] Is IC50 of O=C(Nc1ccc(Cl)c([N+](=O)[O-])c1)c1cc(Cl)ccc1O strictly below 2 µM?
[A] F

[Q] Moving on to O=C(Nc1cc(C(F)(F)F)cc(C(F)(F)F)c1)c1cccc(Cl)c1
[A] F

[Q] Moving on to O=C(Nc1cc(C(F)(F)F)cc(C(F)(F)F)c1)c1cc(F)ccc1O
[A] T
